# System: CSNK1D
# TEST CONDITIONS: concentration: 1 μM, replicates: in singlicate; n = 1
Task for the reader: assign each of the following compounds its reported %Inh.
Give bare numbers, in %.

Worked set:
Cl.Cn1ccc(-c2cccc(Nc3ccnc4cc(-c5nccs5)ccc34)c2)n1 ... 12
CCc1nc(-c2cccc(N(C)S(=O)(=O)c3ccccc3)c2)c(-c2ccnc(Nc3ccc(N4CCN(C(C)=O)CC4)nc3)n2)s1 ... 2
NC(=O)c1sc(-n2cnc3ccccc32)cc1OCc1ccccc1F ... 17
Cn1ccc2ncnc(Nc3ccc(Oc4cccc(Cl)c4)c(Cl)c3)c21 ... 10
COc1cc2c(Nc3cccc(NC(=O)c4ccccc4)c3)ncnc2cc1OCCCN1CCOCC1 ... 60

Parameter requested: %Inh. Apply to each item below.
1. Nc1nccc2scc(-c3ccc4c(c3)CCN4C(=O)Cc3cc(F)ccc3F)c12
2. CS(=O)(=O)CCNCc1ccc(-c2ccc3ncnc(Nc4ccc(OCc5ccccc5)c(Cl)c4)c3c2)o1.Cl
3. COC(=O)c1c(-c2ccccc2)c2cc(Cl)ccc2c(=O)n1Cc1ccc(S(C)(=O)=O)cc1
4. Clc1cc(Nc2ncnc3cc[nH]c23)ccc1OCc1ccccn1
5. O=C(NCCCN1CCCC1=O)c1cnc(NCc2cc(Cl)ccc2Cl)nc1NC1CCNCC1

Output line:
1. 14
2. 15
3. 0
4. 4
5. 28

Parameter requested: %Inh. Apply to each item below.
1. Cl.Fc1ccccc1COc1ccc(Nc2ncnc3ccc(-c4nnc(C(F)(F)F)o4)cc23)cc1Cl
2. CS(=O)(=O)CCNCc1nc(-c2ccc3ncnc(Nc4ccc(OCc5cccc(F)c5)c(Cl)c4)c3c2)cs1.Cl
3. Cc1ccc(NC(=O)c2cccc(C#N)c2)cc1-c1ccc(C(=O)Nc2ccncc2)cc1

Output line:
[5, 4, 19]

Parameter requested: %Inh. Apply to each item below.
1. CNc1nccc(-c2c(-c3ccc(F)cc3)ncn2C2CCN(C)CC2)n1
2. COc1cc2ncnc(Nc3ccc(OCc4ccccc4Br)c(Cl)c3)c2cc1OC.Cl

Output line:
94
24

Parameter requested: %Inh. Apply to each item below.
1. Nc1nc(-c2ccc3c(N)n[nH]c3c2)cc(N2CCC[C@@H](C(=O)Nc3ccccc3)C2)n1.O=C(O)C(F)(F)F.O=C(O)C(F)(F)F
2. Cc1ccc(O)cc1Nc1cc(C(F)(F)F)nc2ccc(-c3ccncc3)cc12
3. Cl.Cl.c1ccc(-c2cc3ccncc3cc2OC2CCNCC2)cc1

Output line:
1: 0; 2: 15; 3: 0

---

# System: ERBB2;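 also: kd values determined as follow-up on hits from a single-replicate KINOMEscan panel screen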
pKd: −log10 of the molar value.
Where pKd equals or exceeds 8, the correct label is YES; where it does not, the label is NO.

Fc1cccc(COc2ccc(Nc3ncnc4sc(-c5ccc[nH]5)cc34)cc2Cl)c1 ... NO
CS(=O)(=O)CCNCc1ccc(-c2ccc3ncnc(Nc4ccc(OCc5ccccc5)c(Cl)c4)c3c2)o1.Cl ... YES
O=C(CCO)NCCn1ccc2ncnc(Nc3ccc(Oc4cccc(C(F)(F)F)c4)c(Cl)c3)c21 ... YES
Cl.O=S(=O)(c1cccc(F)c1)c1ccc(Nc2ncnc3cc(Br)sc23)cc1Cl ... NO
OCCOCCn1ccc2ncnc(Nc3ccc(Oc4cccc(Cl)c4)c(Cl)c3)c21 ... YES

Input line: Say whether `Cl.Fc1ccccc1COc1ccc(Nc2ncnc3ccc(-c4nnc(C(F)(F)F)o4)cc23)cc1Cl` shows pKd of 8 or more.
Output line: NO

---

Task for the reader: assign each of the following compounds its reported %Inh.
# Tested on: MAP4K4
# TEST CONDITIONS: concentration: 1 μM, replicates: in singlicate; n = 1
Numbers only, in %.

Worked set:
Cl.O=S(=O)(c1cccc(F)c1)c1ccc(Nc2ncnc3cc(Br)sc23)cc1Cl [GSK306886] ... 0
Cl.Cl.c1ccc(-c2cc3ccncc3cc2OC2CCNCC2)cc1 [GSK1122999] ... 10
Cc1cc(N2CCC(NS(=O)(=O)c3ccc(F)cc3)CC2)nc(Nc2cccc(C#N)c2)n1.O=C(O)C(F)(F)F [GSK1653537] ... 5
Fc1cccc(COc2ccc(Nc3ncnc4nn5ccccc5c34)cc2Cl)c1 [GW689066] ... 0
Cc1cccc(-c2nc(Nc3ccc4[nH]nnc4c3)c3ccccc3n2)n1 [GW867587] ... 0
FC(F)(F)c1cc(Nc2nccc(-c3c(-c4ccc(Cl)cc4)nn4ncccc34)n2)ccc1Cl [GW829351] ... 0
Clc1cc(Nc2ncnc3cc[nH]c23)ccc1OCc1ccccn1 ... 4
Nc1nc(-c2ccccn2)c(-c2ccnc3ccccc23)s1 [GW548057] ... 4
Cn1ccc2ncnc(Nc3ccc(Oc4cccc(Cl)c4)c(Cl)c3)c21 ... 1
COc1ccc(NC(=O)c2ccc(-c3cc(-c4nnc(C)o4)ccc3C)cc2)cc1 [GW595885] ... 4

Parameter requested: %Inh. Apply to each item below.
1. COc1cc2ncnc(Nc3ccc(OCc4ccccc4Br)c(Cl)c3)c2cc1OC.Cl [GI261590]
2. N#Cc1ccc(Oc2ccc(Nc3ncnc4cc[nH]c34)cc2Cl)cc1
3. Cn1cc(-c2ccc3c(c2)CCN3C(=O)Cc2cccc(C(F)(F)F)c2)c2c(N)ncnc21 [GSK2606414]
4. Fc1cccc(COc2ccc(Nc3ncnc4sc(-c5ccc[nH]5)cc34)cc2Cl)c1 [GW707818]

Output line:
[0, 37, 10, 5]

Parameter requested: %Inh. Apply to each item below.
1. Cc1ccc(O)cc1Nc1cc(C(F)(F)F)nc2ccc(-c3ccncc3)cc12 [GW630823]
2. Fc1ccc(-c2ncn(CCCNCc3ccccc3)c2-c2ccncc2)cc1

Output line:
0
0

---

Task for the reader: assign each of the following compounds its reported %Inh.
# Test system: MYLK4
# TEST CONDITIONS: concentration: 1 μM, replicates: in singlicate; n = 1
Answers are plain numbers, in %.

Worked set:
Cc1ccc(O)cc1Nc1cc(C(F)(F)F)nc2ccc(-c3ccncc3)cc12 ... 0
CC(C)(C)c1ccc(-n2cnc3c(N)ncnc32)cc1 ... 3
Fc1ccc(-c2ncn(CCCNCc3ccccc3)c2-c2ccncc2)cc1 ... 0
CNc1nccc(-c2c(-c3ccc(F)cc3)ncn2CCCN2CCOCC2)n1 ... 0
Clc1cccc(-c2nc(Nc3ccncc3)c3ccccc3n2)c1 ... 0
Nc1nc(-c2ccc3c(N)n[nH]c3c2)cc(N2CCCCC2)n1 ... 0
O=C(Nc1ccccc1F)NC1CCN(c2ccnc(Nc3ccc(F)cc3)n2)C1 (stereo not drawn) ... 0
Nc1n[nH]c2nnc(-c3ccccc3)cc12 ... 24
CSc1ccc(NC2=C(c3ccccc3Cl)C(=O)NC2=O)cc1 ... 10
COc1ccc(-c2oc3ncnc(N)c3c2-c2ccc(OC)cc2)cc1 ... 9

Parameter requested: %Inh. Apply to each item below.
1. FC(F)(F)c1ccc(-c2cc(-c3c[nH]nc3-c3ccccn3)ccn2)cc1
2. Cl.Cn1ccc(-c2cccc(Nc3ccnc4cc(-c5nccs5)ccc34)c2)n1

Output line:
1
0

---

# Tested on: CDKL5
# TEST CONDITIONS: concentration: 1 μM, replicates: in singlicate; n = 1
OBSERVABLE: %Inh (%)
One number for each entry, in %.

Worked set:
Cl.Cn1ccc(-c2cccc(Nc3ccnc4cc(-c5nccs5)ccc34)c2)n1 ... 0
Cc1ccc(NC(=O)c2cccc(C#N)c2)cc1-c1ccc(C(=O)Nc2ccncc2)cc1 ... 11
Cc1cc(N2CCC(NS(=O)(=O)c3ccc(F)cc3)CC2)nc(Nc2cccc(C#N)c2)n1.O=C(O)C(F)(F)F ... 0
O=C(c1ccc(-c2cc(-c3c[nH]nc3-c3ccccn3)ccn2)cc1)N1CCCC1 ... 0
CNc1nccc(-c2c(-c3ccc(F)cc3)ncn2CCCN2CCOCC2)n1 ... 2

Parameter requested: %Inh. Apply to each item below.
1. FC(F)(F)c1ccc(-c2cc(-c3c[nH]nc3-c3ccccn3)ccn2)cc1
2. CSc1ccc(NC2=C(c3ccccc3Cl)C(=O)NC2=O)cc1
3. CSc1nn2c(=O)cc(N3CCOCC3)nc2n1Cc1cccc(Cl)c1Cl

Output line:
1. 0
2. 0
3. 8

---

Task for the reader: assign each of the following molecules its reported %Inh.
# Test system: BRSK2
# TEST CONDITIONS: concentration: 1 μM, replicates: in singlicate; n = 1
Answers are plain numbers, in %.

CC(=O)Nc1n[nH]c2ncc(-c3ccccc3)cc12 ... 0
Cn1ccc2ncnc(Nc3ccc(Oc4cccc(Cl)c4)c(Cl)c3)c21 ... 0

Parameter requested: %Inh. Apply to each item below.
1. CSc1nn2c(=O)cc(N3CCOCC3)nc2n1Cc1cccc(Cl)c1Cl
2. CNc1nccc(-c2c(-c3ccc(F)cc3)ncn2C2CCN(C)CC2)n1
3. CSc1ccc(NC2=C(c3ccccc3Cl)C(=O)NC2=O)cc1

Output line:
1: 0; 2: 0; 3: 12

---

# Tested on: CAMK1
# TEST CONDITIONS: concentration: 1 μM, replicates: in singlicate; n = 1
Task for the reader: assign each of the following compounds its reported %Inh.
Answers are plain numbers, in %.

Worked set:
Cn1cc(-c2ccc3c(c2)CCN3C(=O)Cc2cccc(C(F)(F)F)c2)c2c(N)ncnc21 ... 4
Nc1nc(-c2cccnc2)c(-c2ccnc3ccccc23)s1 ... 8
Fc1ccc(Nc2nccc(-c3c(-c4ccc(Cl)cc4)nn4ncccc34)n2)cc1F ... 22
COC(=O)c1cccc(NC(=O)NCCNc2ccnc(Nc3ccc(F)cc3)n2)c1 ... 27
COc1ccc(NC(=O)Nc2ccc(C)c(-c3ccc(C(=O)Nc4ccncc4)cc3)c2)cc1 ... 4
CCC(CC)(CC)n1cnc2c(N)ncnc21 ... 3

Now look at this one.
%Inh in this record for `Nc1nc(-c2ccc3c(N)n[nH]c3c2)cc(N2CCCCC2)n1` : 13
